# test: solvent given as SMILES
# condition.info: in CO
outcome.measure: absorption maximum (nm)
Quick note: give the figure in nm, leave out the unit.

CCCCCCCCCCCCCCCC[n+]1ccc(/C=C(\C)c2ccccc2)cc1: 400.6

# input for lookup
Could you share which absorption maximum value was measured for `CCOC(=O)CCCCCn1c2ccc(Cl)cc2c(=O)c2cc3c(cc21)c(=O)c1cc(Cl)ccc1n3CCCCCC(=O)OCC` ?
534

* * *

Listed compounds paired with reported absorption maximum
# test: solvent given as SMILES
# condition.info: in ClCCl
Quick note: give the figure in nm, leave out the unit.

Sample answers from the record:
O=C1c2ccccc2-c2c(-c3cc(Br)ccc3O)[nH]c(=O)n21: 396
CN(C)c1ccc(C#CC2=C3CCc4ccccc4C3=[O+][B-](F)(F)O2)cc1: 514

Could you share which absorption maximum value was measured for `CCCCCCc1ccc2c(/C=N/c3cc(/N=C/c4c(O)ccc5cc(CCCCCC)ccc45)cc(/N=C/c4c(O)ccc5cc(CCCCCC)ccc45)c3)c(O)ccc2c1` ?
479

Same question, `COc1ccc(C#Cc2ccc(C#Cc3ccc(P(=O)(c4ccc(C#Cc5ccc(C#Cc6ccc(OC)cc6)cc5)cc4)c4ccc(C#Cc5ccc(C#Cc6ccc(OC)cc6)cc5)cc4)cc3)cc2)cc1` this time
338

Same question, `COc1cc2c(cc1OC)C1=C[C@H](c3ccc(C)cc3)C3(C(C#N)=C(C#N)N1CC2)c1cc(Br)ccc1-c1ccc(Br)cc13` this time
315

* * *

Listed molecules paired with reported absorption maximum
# test: solvent given as SMILES
# condition.info: in C1CCCCC1
Quick note: give the figure in nm, leave out the unit.

Sample answers from the record:
c1ccc(-c2c3c(c(-c4ccccc4)c4c2-c2ccccc2C4)-c2ccccc2C3)cc1: 329
Cc1oc(-c2ccccc2)nc1C(=O)O: 269
CCC1=C(C)C2=Cc3c(I)c(I)cn3[B-](F)(F)[N+]2=C1C: 527.5
Cc1cc2c(o1)c(C)cc1ccc(=O)oc12: 330
CCCC1(CCC)c2cc(-c3ccc(C(C)(C)CC)cc3)ccc2-c2ccc(-c3ccc(C(C)(C)CC)cc3)cc21: 328
COc1ccccc1-c1nc(-c2ccccc2)c2ccccn12: 303
CN(C)c1ccc(-c2cc(-c3ccc(C#N)cc3)nn2C)cc1: 288
CN(C)c1ccc2nc(-c3ccc(C(=O)O)cc3)sc2c1: 387

Could you share which absorption maximum value was measured for `CN(C)c1ccc(-c2nc3cnccc3[nH]2)cc1` ?
327

Same question, `CN(C)CCN(Cc1c2ccccc2c(CN(CCN(C)C)c2ccc([N+](=O)[O-])cc2[N+](=O)[O-])c2ccccc12)c1ccc([N+](=O)[O-])cc1[N+](=O)[O-]` this time
340

Same question, `CC1=[N+]2C(=C(c3ccc(C(=O)c4ccccc4)cc3)c3ccc(C)n3[B-]2(F)F)C=C1c1cc2n(c1)[B-](F)(F)[N+]1=CC=CC1=C2c1c(C)cc(C)cc1C` this time
599

Same question, `c1ccc(-c2nc(-c3ccc(N(c4ccccc4)c4ccccc4)cc3)n3ccccc23)cc1` this time
352

Same question, `Cc1ccccc1C1=C2C=c3c(oc4c3ccc3ccccc34)=[N+]2[B-](F)(F)n2c1cc1c3ccc4ccccc4c3oc12` this time
613

Same question, `OB(O)c1ccc(-c2ccc(N(c3ccccc3)c3ccccc3)cc2)cc1` this time
332.8

Same question, `CC1=[N+]2C(=C(c3ccccc3C)c3ccc(C)n3[B-]2(F)F)C=C1c1cc2n(c1)[B-](F)(F)[N+]1=CC=CC1=C2c1c(C)cc(C)cc1C` this time
595

* * *

Listed compounds paired with reported absorption maximum
# test: solvent given as SMILES
# condition.info: in CC#N
Quick note: give the figure in nm, leave out the unit.

Sample answers from the record:
COC(=O)c1c2ccccc2nc2ccccc12: 360
COC(=O)c1cc(=O)n(Cc2ccccc2)c2cc(-c3ccc(OC)cc3)sc12: 400

Could you share which absorption maximum value was measured for `Fc1c(F)c(F)c([B-]2(c3c(F)c(F)c(F)c(F)c3F)Oc3c(ccc4c5c(ccc34)C=[N+](c3ccccc3)[B-](c3c(F)c(F)c(F)c(F)c3F)(c3c(F)c(F)c(F)c(F)c3F)O5)C=[N+]2c2ccccc2)c(F)c1F` ?
515

Same question, `CNC(=O)[C@H](C)NC(=O)c1cccc2c1C#Cc1c(NC(=O)[C@@H](NC(C)=O)C(C)C)cccc1OCCCO2` this time
324

Same question, `COc1ccc(-n2nc(C(=O)c3ccc(Cl)cc3)c(N3CCCC3)n2)cc1` this time
381

Same question, `Cc1csc2[n+]1[B-](F)(F)n1c(c3cccc4cccc1c43)=N2` this time
470

* * *

Listed molecules paired with reported absorption maximum
# test: solvent given as SMILES
# condition.info: in CCOC(C)=O
Quick note: give the figure in nm, leave out the unit.

Sample answers from the record:
CC(C)(C)NC1=C2C=CC=[N+]2[B-](F)(F)n2cccc21: 412
Cn1c(=O)c(/N=N/c2ccc(Nc3ccccc3)c(S(=O)(=O)O)c2)c(O)c2ccccc21: 411
COc1cc2c(cc1-c1ccccc1)Cc1c3c(c4c(c1-2)-c1cc(OC)c(-c2ccccc2)cc1C4)C(=O)N(CCC(C)C)C3=O: 405

Could you share which absorption maximum value was measured for `COc1ccc([C@@H]2C[C@](O)(c3ccccn3)C[C@](O)(c3ccccn3)[C@H]2C(=O)c2ccc(N(c3ccccc3)c3ccccc3)cc2)cc1` ?
366

Same question, `CN(C)c1cc(C#N)c(N(C)C)c(C#N)c1` this time
389.71

Same question, `CNc1cccc2c1C(=O)c1ccccc1C2=O` this time
497.5

Same question, `F[B-]1(F)N(c2ccccc2)C=Cc2cccc[n+]21` this time
427

Same question, `Cc1ccc(C2=C3C=C(I)C=[N+]3[B-](F)(F)n3c2cc(I)c3I)cc1` this time
556.5

Same question, `CCn1c2ccccc2c2cc(C#Cc3cc(C#Cc4ccc5c(c4)c4ccccc4n5CC)ncn3)ccc21` this time
379

Same question, `Cc1ccc(/C(C#N)=C/c2cc(/C=C(\C#N)c3ccc(C)cc3)c(-c3ccc(N(c4ccccc4)c4ccccc4)cc3)cc2-c2ccc(N(c3ccccc3)c3ccccc3)cc2)cc1` this time
393

Same question, `CC1=[N+]2C(=C(c3ccccc3C)c3ccc(C)n3[B-]2(F)F)C=C1c1cc2n(c1)[B-](F)(F)[N+]1=CC=CC1=C2c1c(C)cc(C)cc1C` this time
599

* * *

# test: solvent given as SMILES
# condition.info: in C1CCOC1
The class of a record is decided solely by its measured absorption maximum; consult b0 (below 400 nm), b1 (400 nm to below 500 nm), b2 (500 nm or more)

Please review the following examples before continuing.
COc1ccc(-n2c(-c3ccc(-c4cncc5ccccc45)cc3)nc(-c3ccccc3)c2-c2ccccc2)cc1: b0
OC1(c2ccc(-c3cccs3)s2)CCCC1: b0
Oc1ccccc1/N=C/c1ccccc1Oc1ccccc1: b0
CC(C)(C)c1cc2c3c(c1)c1cc(C(C)(C)C)cc4c1n3B1c3c-2cccc3-c2cc(C(C)(C)C)cc3c5cc(C(C)(C)C)cc-4c5n1c23: b1
Cc1ccc(-c2c3ccc([nH]3)c3nc(c(-c4ccc(C#N)cc4)c4ccc([nH]4)c4ccc([nH]4)c(-c4ccc(C)cc4)c4ccc2o4)C=C3)cc1: b1
CC(C)(C)NC1=CC2=c3cc(NC(C)(C)C)c4nc(C(F)(F)C(F)(F)C(F)(F)F)nc5c(NC(C)(C)C)cc(c3c54)C3=CC(NC(C)(C)C)=C4N=C(C(F)(F)C(F)(F)C(F)(F)F)N=C1C4C32 (centres undefined): b2
Cc1csc2[n+]1[B-](F)(F)n1c(c3cccc4cccc1c43)=N2: b1
CCCCCCOc1ccc(N(c2ccc(OCCCCCC)cc2)c2ccc(-c3sc(-c4ccc(N(c5ccc(OCCCCCC)cc5)c5ccc(OCCCCCC)cc5)cc4)c4nc(-c5ccccc5)c(-c5ccccc5)nc34)cc2)cc1: b2
F[B-]1(F)n2c(c(-c3ccccc3)c(-c3ccccc3)c2-c2ccccc2)C(c2ccccc2)=C2C(c3ccccc3)=C(c3ccccc3)C(c3ccccc3)=[N+]21: b2
CCCCCCCCCCCCC1(CCCCCCCCCCCC)c2cc(-c3ccc(C=C4C(=O)c5ccccc5C4=O)cc3)ccc2-c2ccc(-c3ccc(C=C4C(=O)c5ccccc5C4=O)cc3)cc21: b1

Given `CC1=C(C#Cc2ccc(N(c3ccccc3)c3ccccc3)cc2)C(C)=[N+]2C1=C(c1ccccc1)c1c(C)c(C#Cc3ccc(N(c4ccccc4)c4ccccc4)cc3)c(C)n1[B-]2(F)F` , name the class its absorption maximum places it in.
b2

Same question, `CCOc1ccc2cc(-c3ccc(C)cc3)c(=O)oc2c1` this time
b0

Same question, `C=CCOC(=O)C(C#N)=C1C=C(/C=C/c2ccc(N(C)C)cc2)OC(/C=C/c2ccc(N(C)C)cc2)=C1` this time
b1

Same question, `C1=Cc2ccccc2C(=Cc2ccc(C=C3c4ccccc4C=Cc4ccccc43)cc2)c2ccccc21` this time
b0

Same question, `CN(C)c1ccc2cc(C3=[O+][B-](F)(F)OC(c4ccc(C#N)cc4)=C3)ccc2c1` this time
b2

Same question, `O=C1c2ccccc2-c2ccc(N3CCN(c4ccccc4)CC3)c3cccc1c23` this time
b1

Same question, `CCOC(=O)C1=CNC=C(C(=O)OCC)C1c1ccccc1` this time
b0

Values were extracted from the Deep4Chem optical property database.
